pIC50 listing for selected molecules.
# TARGET_DESC: IL-17A (Homo sapiens)
# Sequence (Q16552 24-155): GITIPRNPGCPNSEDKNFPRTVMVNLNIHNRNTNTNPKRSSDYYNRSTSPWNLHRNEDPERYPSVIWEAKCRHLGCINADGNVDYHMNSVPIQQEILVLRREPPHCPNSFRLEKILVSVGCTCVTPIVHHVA
# TEST: Inhibition of IL-17A induced IL-6 release from dermal fibroblast cell line (HDF cell line assay)
# EXPERIMENTAL_PARAMETERS: HDF cells stimulated with IL-17A 50 pM + TNFα 25 pM; IL-6 measured by HTRF
pIC50: −log10 of the molar value.
PROPERTY_LABEL: pIC50

[[record]]
molecule = "[2H]C([2H])([2H])O[C@H]1CCN(C(=O)[C@@H]2CCC(F)(F)CO2)[C@@H](c2cnn3cc([C@@H](NC(=O)c4ccnn4C)C4CCC(F)(F)CC4)nc3n2)C1 (single isomer, unassigned) [Example 1]"
target_desc = "IL-17A (Homo sapiens)"
measured_number = 7.40

[[record]]
molecule = "CO[C@H]1CCN(C(=O)[C@@H]2CCC(F)(F)CO2)[C@@H](c2cnn3cc([C@@H](NC(=O)c4ccnn4C)C4CCC(F)(F)CC4)nc3n2)C1 (single isomer, unassigned) [Example 3]"
target_desc = "IL-17A (Homo sapiens)"
measured_number = 7.40

[[record]]
molecule = "CO[C@H]1CCN(C(=O)[C@@H]2CCC(F)(F)CO2)[C@H](c2cnn3cc(C(NC(=O)c4ccnn4C)C4CCC(F)(F)CC4)nc3n2)C1 (single isomer, unassigned) [Example 4]"
target_desc = "IL-17A (Homo sapiens)"
measured_number = 8.50

[[record]]
molecule = "[2H]C([2H])([2H])O[C@H]1CCN(C(=O)[C@@H]2CCC(F)(F)CO2)[C@H](c2cnn3cc(C(NC(=O)c4ccnn4C)C4CCC(F)(F)CC4)nc3n2)C1 (single isomer, unassigned) [Example 2]"
target_desc = "IL-17A (Homo sapiens)"
measured_number = 8.40


Where do the numbers come from? From patent US20260285868A1.
